- measuredOn: Peroxisome proliferator-activated receptor delta (Homo sapiens)
- protocolNotes: qHTS assay to identify small molecule antagonists of the peroxisome proliferator-activated receptor delta (PPARd) signaling pathway (AID 743215);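 also: cells stimulated with agonist L165041 at 300 nM final during compound exposure; % is scaled to controls: 0 for no effect and ±100 for the full control effect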
- assayConditions: HEK293H PPARd-UAS-bla, beta-lactamase FRET ratio, antagonist, 17 h; series mostly up to 62 µM
Inconclusive results are not listed. Activity calls are given as the source filed them. Calls follow the shape of the dose curve; as a rule, active = well fitted inhibition curve with a large enough effect in the signal ratio in the repeat runs (not every such curve was filed as active); inconclusive = weak or mixed curves, or effect the other way; inactive = no such curve, though single readings can be large or run the other way; the % refers to the signal ratio.
parameterMeasured: outcome

Solved cases (5 shown):
[[record]]
molecule = "Cc1c(C)c2c(c(C)c1OC(=O)c1cccnc1)CC[C@@](C)(CCC[C@H](C)CCC[C@H](C)CCCC(C)C)O2"
parametermeasured = "outcome"
reportedmeasurement = "inactive"

[[record]]
molecule = "CCOc1ccc2ccccc2c1C(=O)N[C@@H]1C(=O)N2[C@@H]1SC(C)(C)[C@@H]2C(=O)O"
parametermeasured = "outcome"
reportedmeasurement = "inactive"

[[record]]
molecule = "CC(CCc1ccccc1)NCC(O)c1ccc(O)c(C(N)=O)c1 (configuration not stated)"
parametermeasured = "outcome"
reportedmeasurement = "inactive"

[[record]]
molecule = "CC(=O)OCC=C(C)C"
parametermeasured = "outcome"
reportedmeasurement = "inactive"

[[record]]
molecule = "COc1cc(S(=O)(=O)O)c(C)cc1N=Nc1c(O)ccc2cc(S(=O)(=O)O)ccc12"
parametermeasured = "outcome"
reportedmeasurement = "inactive"


Entry CC(=O)Oc1cc2c(s1)CCN(C(C(=O)C1CC1)c1ccccc1F)C2 (configuration not stated) has what outcome? inactive

Given the molecule CC(C)CCCCCOC(=O)CCS , what is its reported outcome? inactive

Suppose we examine the molecule O=C1OC2(c3ccc(O)cc3Oc3cc(O)ccc32)c2ccc(N=C=S)cc21 ; what outcome value has been reported? inactive

# outcome lookup, item Cc1cccc2cccnc12 inactive

Quick one: outcome of O=S(=O)(O)c1ccc(N=Nc2c(O)ccc3ccccc23)cc1 ? inactive

Looking for the measured outcome of Nc1ccc(NCCO)c([N+](=O)[O-])c1 , can you help? inactive

Return reported outcome; argument: CC[N+](CC)(CC)CCOC(=O)C(C1CCCC1)C1CCCC1 inactive

====

- protocolNotes: A CellTox Green Cytotoxicity Assay to monitor cytotoxicity in HEK293 cells - 24 hour (AID 1224875); also: % is scaled to controls: 0 for no effect and ±100 for the full control effect; nearly all actives have a fitted effect of over 45% in size
- assayConditions: CellTox Green fluorescence; series mostly up to 76.8 µM
Results filed as inconclusive are left out. The source made the active and inactive calls. Calls follow the shape of the dose curve; as a rule, active = well fitted activation curve with a large enough effect in the repeat runs; inconclusive = weak or mixed curves; inactive = flat fitted curve, though single readings scatter.
parameterMeasured: outcome

[[record]]
compound = "C=CCn1c(=O)n(CC=C)c(=O)n(CC=C)c1=O"
reportedmeasurement = "inactive"

[[record]]
compound = "C=C(C)c1cccc(C(=C)C)c1"
reportedmeasurement = "inactive"

[[record]]
compound = "CCC(C)[O-].CCC(C)[O-].CCOC(=O)/C=C(/C)[O-].[Al+3]"
reportedmeasurement = "inactive"

[[record]]
compound = "Clc1ccnc(Cl)n1"
reportedmeasurement = "inactive"

[[record]]
compound = "Cc1c(C)c2c(c(C)c1O)CC[C@@](C)(CCC[C@H](C)CCC[C@H](C)CCCC(C)C)O2"
reportedmeasurement = "inactive"

[[record]]
compound = "O=C(O)[C@H](O)[C@@H](O)[C@H](O[C@@H]1O[C@H](CO)[C@H](O)[C@H](O)[C@H]1O)[C@H](O)CO"
reportedmeasurement = "inactive"

[[record]]
compound = "S=C([S-])NCCNC(=S)[S-].S=C([S-])NCCNC(=S)[S-].[Mn+2].[Zn+2]"
reportedmeasurement = "inactive"

[[record]]
compound = "O=C1CCc2cc(OCCCCc3nnnn3C3CCCCC3)ccc2N1"
reportedmeasurement = "inactive"


Bench note: what outcome did COc1cc(/C=C/c2ccccc2)oc(=O)c1 show? inactive

outcome for CCC(C)(CCC(C)C)C(=O)[O][Sn]([CH3])([CH3])[O]C(=O)C(C)(CC)CCC(C)C (stereo not given) ? inactive

====

- protocolNotes: Caspase-3/7 induction in CHO-K1 cells by small molecules, qHTS cell viability counter screen (AID 1346979); also: nearly all actives have a fitted effect of over 35% in size
- assayConditions: CellTiter-Fluor fluorescence, 17 h; series mostly up to 92.4 µM
Records with an inconclusive call do not appear. The source made the active and inactive calls. Calls come from the whole dose curve; as a rule, active = well fitted cell-killing curve with a large enough effect in the repeat runs; inconclusive = weak or mixed curves, or effect the other way; inactive = no such curve, though single readings can be large or run the other way.
// one of 1 (yes) (active), 0 (no) (inactive), no free text

Tell me the recorded outcome of this test for O=C(O)Cc1ccc2c(c1)C(=O)c1ccccc1CO2 . 0 (no)

What is the recorded call for this molecule in the test? O=C(O)c1cc(=O)c2ccccc2o1 0 (no)

Test call, this molecule: O=C(/C=C/c1ccccc1)OC/C=C/c1ccccc1 0 (no)

Status in this test for CCCCCCCCCCOC(=O)c1ccccc1C(=O)OCCCCCCCC ? 0 (no)

What did this assay record as the result for C=CCn1c(=O)n(CC=C)c(=O)n(CC=C)c1=O ? 0 (no)

// outcome(item) with item = CCCC(=O)OCCc1ccccc1 0 (no)

Outcome? CCN(CC)C(=O)c1cc(S(=O)(=O)Cc2ccccc2)c(N2CCC(c3ccccc3)CC2)cc1N(CC)CCN(C)C 1 (yes)

What did this assay record as the result for CCCCC(CC)COC(=O)CCCCC(=O)OCc1ccccc1 (stereo unspecified) ? 0 (no)

Lab log entry: COc1ccc(-c2coc3cc(O)ccc3c2=O)cc1 — outcome as called in the assay? 0 (no)

Give the logged outcome of this assay for the following molecule: O=[N+]([O-])c1ccc(O)cc1C(F)(F)F 1 (yes)

I'd appreciate the recorded outcome for O=C(O)c1cccc(C(F)(F)F)c1 from this test. 0 (no)

Please state the recorded outcome for this molecule: CCc1cccc(CC)c1NC(=O)CN(CC(=O)O)CC(=O)O 0 (no)

Record lookup: outcome of this test for CN1CCN2c3ccccc3Cc3ccccc3C2C1 (stereo unspecified) ? 0 (no)

What did the test return for CC[C@H](C)COC(=O)/C=C/c1ccc(N=Cc2ccc(OC)cc2)cc1 ? 1 (yes)

Fill in: this test's call for Cc1ccc(C(=O)O)cc1 is ___ 0 (no)

Per the assay record, what outcome was assigned to CN(C)Cc1ccccc1O ? 0 (no)

Given CCOC(=O)Cn1cccc1-c1nc(-c2ccc(OC)cc2)c(-c2ccc(OC)cc2)s1 , state the outcome it received in this test. 0 (no)

Each molecule tested received a call. Report the one for Cc1ccc(O)c(O)c1 . 1 (yes)

What is the recorded call for this molecule in the test? CC[N+](CC)(CC)CCOC(=O)C(C1CCCC1)C1CCCC1 0 (no)

Test call, this molecule: CCC(CC)C(C)CCOC(C)=O (stereo unspecified) 0 (no)

Per the records of this test, what outcome belongs to CCCC(=O)OCOC(=O)C1=C(C)NC(C)=C(C(=O)OC)C1c1cccc(Cl)c1Cl (stereo unspecified) ? 0 (no)

Tell me the recorded outcome of this test for C=CC(C)(CCC=C(C)C)OC=O (stereo unspecified) . 0 (no)

Hi team, can someone confirm the assay call for Cc1cccc(C)c1NC(=O)c1ccc(N)cc1 ? 0 (no)

What is the recorded call for this molecule in the test? CCCC[P+](C)(CCCC)CCCC 0 (no)

Name the outcome recorded for CCN(CC)c1ccc2c(-c3ccc(S(=O)(=O)O)cc3S(=O)(=O)[O-])c3ccc(=[N+](CC)CC)cc-3oc2c1 in the assay. 1 (yes)

Which outcome did this test record for the molecule Nc1ccc(NCCO)c([N+](=O)[O-])c1 ? 1 (yes)

====

- protocolNotes: qHTS RealTime-Glo MT Cell Viability Assay in HepG2 cells - 32 hour (AID 1224877); also: nearly all actives have a fitted effect of over 55% in size
- assayConditions: RealTime-Glo luminescence; series mostly up to 76.8 µM
Records with an inconclusive call do not appear. The source made the active and inactive calls. Calls follow the shape of the dose curve; as a rule, active = well fitted cell-killing curve with a large enough effect in the repeat runs; inconclusive = weak or mixed curves; inactive = flat fitted curve, though single readings scatter.
Give your call using only these classes: active, inactive

Entry C=C(CC)C(=O)c1ccc(OCC(=O)O)c(Cl)c1Cl : call = ? inactive

I'd appreciate the recorded outcome for O=C(c1ccc(O)c(O)c1)c1ccc(O)cc1O from this test. inactive

Please let me know the test result on file for CC(C(=O)O)c1ccc2c(c1)[nH]c1ccc(Cl)cc12 (stereo not given) . inactive

Status in this test for Nc1nc(N)nc(-c2cc(Cl)ccc2Cl)n1 ? inactive

# outcome recorded in this test, key = CC(=O)Oc1cc2c(s1)CCN(C(C(=O)C1CC1)c1ccccc1F)C2 (stereo not given) inactive

Fill in: this test's call for Cc1cccc(C(=O)O)c1O is ___ inactive

Call for entry COc1cc(/C=C/c2ccccc2)oc(=O)c1 : inactive

Can you look up the reported call for O=[N+]([O-])c1ccc(F)c(Cl)c1 for me? inactive

What was the test verdict on CC(C)=CCC1=C(O)c2ccccc2C(=O)C1=O ? inactive

Would you mind telling me which call this test gave C=C(C)c1cccc(C(=C)C)c1 ? inactive

Which result was noted for this molecule in the test: CCCCNS(=O)(=O)c1ccc(C)cc1 inactive

I'd appreciate the recorded outcome for Cc1ccc(C(=O)O)cc1 from this test. inactive

Record request — test call for O[C@@H]([C@H](O)[C@H](O)CBr)[C@H](O)CBr inactive

Just curious, what result did Cc1c(C)c([N+](=O)[O-])c(C(C)(C)C)c([N+](=O)[O-])c1C get here? inactive

How did this test come out for OC12N=C(c3ccccc3)SC1Cc1cc(Cl)ccc12 (stereo not given) ? inactive

Recorded call for CCCCCCCCCCC[C@@H](C[C@@H]1OC(=O)[C@H]1CCCCCC)OC(=O)[C@H](CC(C)C)NC=O ? inactive

Which outcome was assigned to OC[C@@H](O)[C@@H](O)CO in this test? inactive

Recorded test outcome, item ClCCl inactive

In this assay, the call recorded for COc1cccc2c1C(=O)c1c(O)c3c(c(O)c1C2=O)C[C@@](O)(C(C)=O)C[C@@H]3O[C@H]1C[C@H](N)[C@H](O)[C@H](C)O1 was what? active

Please indicate how the test categorized C#Cc1ccc(-c2ccccc2F)cc1 . inactive

Recorded call for OC1CCCc2ccccc21 (stereo not given) ? inactive

Dear all, I need the recorded test outcome for CC(=O)c1ccc(C(C)=O)cc1 , thank you. inactive

// outcome(item) with item = CCC(CC)(CC(=O)Nc1cccc(/C=C/c2nc(C3CCC3)cs2)c1)C(=O)O inactive

I would be grateful if you could indicate the recorded call for COc1cc(C)ccc1O . inactive

# fetch the recorded call for Nc1ccc(NCCO)c([N+](=O)[O-])c1 here inactive

Hi, do you know how Clc1ccnc(Cl)n1 came out in this test? inactive

What did the test return for CCn1c2ccccc2c2cc([N+](=O)[O-])ccc21 ? inactive

How was CC1(C)CC(O)CC(C)(C)N1 classified in this test? inactive

# fetch the recorded call for Cc1ccc(O)c(O)c1 here inactive

Each molecule tested received a call. Report the one for Fc1ccc(C(c2ccc(F)cc2)N2CCNCC2)cc1 . inactive

What did this assay record as the result for CCCCC(CC)CN1CN(CC(CC)CCCC)CC(C)(N)C1 (stereo not given) ? active

Please let me know the test result on file for CN(C)CCN1CCN(c2cccc(Cl)c2)C1=O . inactive

# outcome recorded in this test, key = O=C1NC(=O)[C@@H]2CC=CC[C@H]12 inactive

Record lookup: outcome of this test for CC1(C)CCC[C@]2(C)[C@H]3CCO[C@]3(C)CC[C@@H]12 ? inactive

Recorded test outcome, item COc1ccc(-c2coc3cc(O)ccc3c2=O)cc1 inactive

Test call for this molecule, please: C=C(C)C(=O)OCCCCCCCCCC inactive

Would you mind telling me which call this test gave [Cu+] ? active

Identify the outcome logged in this assay for the molecule shown: O=c1[nH]c2ccccc2n1CCCN1CCN(C(c2ccccc2)c2ccccc2)CC1 active

How was Cc1c(C)c2c(c(C)c1OC(=O)c1cccnc1)CC[C@@](C)(CCC[C@H](C)CCC[C@H](C)CCCC(C)C)O2 classified in this test? inactive

Hi, sorry to bother you, what did the test record for C1CCC(SSC2CCCCC2)CC1 ? inactive

Could you please tell me the result logged for Nc1nc2c(ncn2COCCO)c(=O)[nH]1 in this assay? inactive

Hi team, can someone confirm the assay call for CCCC(=O)OCCc1ccccc1 ? inactive

Per the assay record, what outcome was assigned to CC(C)(C)c1ccc(C(O)CCCN2CCC(C(O)(c3ccccc3)c3ccccc3)CC2)cc1 (stereo not given) ? active

How did this test come out for O=c1c(O)c(-c2ccc(O)cc2O)oc2cc(O)cc(O)c12 ? inactive

Per the records of this test, what outcome belongs to c1ccc(SSc2ccccc2)cc1 ? inactive

Cited source: PubChem BioAssay (Tox21)
